Values were extracted from patent US11008334B2.

ASSAYED TARGET: K-RasG12C (1-169) (Homo sapiens, UniProt P01116, G12C)
Construct: Un-tagged recombinant K-Ras G12C (1-169) at 4 μM in Buffer A; hexahistidine (cleaved yes); made in house; host or cells: Escherichia coli BL21 (DE)
Sequence (P01116 1-169 isoform P01116-2 G12C): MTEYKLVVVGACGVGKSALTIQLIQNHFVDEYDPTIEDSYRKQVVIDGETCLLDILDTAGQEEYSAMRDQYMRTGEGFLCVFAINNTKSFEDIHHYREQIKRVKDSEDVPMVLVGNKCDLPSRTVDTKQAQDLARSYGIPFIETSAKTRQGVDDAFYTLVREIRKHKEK
ASSAY DETAILS: Mass spectrometric screen for extent of covalent labeling
Assay type: binding
CONDITIONS: 24 h, 10 micromolar, 24 hrs; read-out: Percent reduction in activity of compound at 10 micromolar relative to control (no compound), 24 hrs
QUANTITY MEASURED: percent covalent labeling at 10 µM

Param readout= percent covalent labeling at 10 µM; system= K-RasG12C (1-169) (Homo sapiens, UniProt P01116, G12C); entry= C=CS(=O)(=O)NC1CCN(C(=O)COc2cc(I)c(Cl)cc2Cl)CC1 [Ras-036] ; returns value. 40 to 60%

Quick check: percent covalent labeling at 10 µM on K-RasG12C (1-169) (Homo sapiens, UniProt P01116, G12C), item C=CS(=O)(=O)NC1CCN(C(=O)CNc2cc(Cl)c(Cl)cc2OC)CC1 [Ras-054] ? > 60%

Return percent covalent labeling at 10 µM measured with K-RasG12C (1-169) (Homo sapiens, UniProt P01116, G12C) given this molecule: C=CS(=O)(=O)NC1CCN(C(=O)CNc2ccc(Cl)cc2Cl)CC1 [Ras-028] 20 to 40%

Give percent covalent labeling at 10 µM (K-RasG12C (1-169) (Homo sapiens, UniProt P01116, G12C)) of the following molecule: C=CS(=O)(=O)NC1CCN(C(=O)COc2cc(CO)c(Cl)cc2Cl)CC1 [Ras-050] 5 to 20%

Quick check: percent covalent labeling at 10 µM on K-RasG12C (1-169) (Homo sapiens, UniProt P01116, G12C), item C=CC(=O)NC1CCN(C(=O)COc2c(Cl)cc(Cl)cc2Cl)CC1 [Ras-002] ? ≤ 5%

Which percent covalent labeling at 10 µM is reported with K-RasG12C (1-169) (Homo sapiens, UniProt P01116, G12C) for this entry: C=CS(=O)(=O)NC1CCN(C(=O)COc2ccc(Cl)cc2N2CCCC2)CC1 [Ras-029] ? ≤ 5%

State its percent covalent labeling at 10 µM on K-RasG12C (1-169) (Homo sapiens, UniProt P01116, G12C): C=CC(=O)N1CC[C@@H](NC(=O)CNc2cc(Cl)c(Cl)cc2I)C1 [JO-02-157A (R)] ≤ 5%

Lab request: please report percent covalent labeling at 10 µM under test system K-RasG12C (1-169) (Homo sapiens, UniProt P01116, G12C) for C=CS(=O)(=O)NC1CCN(C(=O)COc2ccc(Cl)cc2NC(C)=O)CC1 [Ras-016] ≤ 5%

Find the measured percent covalent labeling at 10 µM: item C=CC(=O)NC1CCN(C(=O)CCn2cnc3ccccc32)CC1 [Ras-005] , target or system K-RasG12C (1-169) (Homo sapiens, UniProt P01116, G12C). ≤ 5%

Provide the documented percent covalent labeling at 10 µM with K-RasG12C (1-169) (Homo sapiens, UniProt P01116, G12C) as the system for C=CS(=O)(=O)NC1CCN(C(=O)COc2c(Cl)cc(Cl)c3cccnc23)CC1 [UP-I-154A] ≤ 5%

Give recorded percent covalent labeling at 10 µM with K-RasG12C (1-169) (Homo sapiens, UniProt P01116, G12C) for the following molecule: C=CS(=O)(=O)NCCNC(=O)COc1ccc(Cl)cc1Cl [JO-02-36A] ≤ 5%

State its percent covalent labeling at 10 µM on K-RasG12C (1-169) (Homo sapiens, UniProt P01116, G12C): C=CS(=O)(=O)NC1CCN(C(=O)C(C)Oc2cc(Cl)c(Cl)cc2Cl)CC1 (stereo not shown) [JO-02-116A] ≤ 5%

Reported percent covalent labeling at 10 µM for K-RasG12C (1-169) (Homo sapiens, UniProt P01116, G12C), given C=CS(=O)(=O)NC1CCN(C(=O)CNc2c(Cl)cc(Cl)c3nonc23)CC1 [UP-I-187] ? 20 to 40%

Given the entry C=CS(=O)(=O)NC1CCN(C(=O)COc2cc(O)c(Cl)cc2Cl)CC1 [Ras-039] , what percent covalent labeling at 10 µM was observed with K-RasG12C (1-169) (Homo sapiens, UniProt P01116, G12C)? 5 to 20%

Form field: percent covalent labeling at 10 µM recorded for C=CS(=O)(=O)NC1CCN(c2cc(-c3cc(Cl)c(Cl)cc3I)ccn2)CC1 [Ras-060] with K-RasG12C (1-169) (Homo sapiens, UniProt P01116, G12C) (enter value) ≤ 5%

percent covalent labeling at 10 µM of O=C(NC1CCN(C(=O)COc2ccc(Cl)cc2Cl)CC1)C1CO1 (stereo not shown) [JO-02-72] on K-RasG12C (1-169) (Homo sapiens, UniProt P01116, G12C)? ≤ 5%

What reported percent covalent labeling at 10 µM corresponds to C=CS(=O)(=O)NC1CCN(C(=O)CNc2cc(Cl)c(Cl)cc2CC)CC1 [Ras-059] on K-RasG12C (1-169) (Homo sapiens, UniProt P01116, G12C)? > 60%

Identify the measured percent covalent labeling at 10 µM of C=CS(=O)(=O)NC1CCN(C(=O)COc2nc(Cl)c(Cl)cc2Cl)CC1 [JO-02-116B] for K-RasG12C (1-169) (Homo sapiens, UniProt P01116, G12C). ≤ 5%

What percent covalent labeling at 10 µM appears in the records for this molecule with K-RasG12C (1-169) (Homo sapiens, UniProt P01116, G12C)? C=CS(=O)(=O)NC1CCN(C(=O)CSc2nnc(C)s2)CC1 [UP-I-164A] ≤ 5%
